These data points were gathered from paper PMC4929710.

Experiment: Circular dichroism (CD) analysis
Assay type: physicochemical
Details: benign buffer; relative to molar ellipticity of A12L/A20L in 50% TFE
endpoint_label: α-Helix (%) Benign

Ac-KWKSFLKTFKSALKTVLHTALKAISS-NH2 [Peptide V13L]	24.24%
Ac-KWKSFAKTFKSAKKTVLHTALKAISS-NH2 [Peptide L6A]	8.85%
Ac-KWKSFLKTFKSAEKTVLHTALKAISS-NH2 [Peptide V13E]	8.95%
Ac-KWKSFLKTFKSAAKTVLHTALKAISS-NH2 [Peptide V13A]	15.06%
Ac-KWKSFLKTFKSASKTVLHTALKAISS-NH2 [Peptide V13S]	10.15%

Next up:
Query: α-Helix (%) Benign; subject: Ac-KWKSFAKTFKSAKKTVAHTALKAISS-NH2 [L6A/L17A]
8.28%

---

Property: [θ]222 50% TFE; scope: individual substances
Assay: Circular dichroism (CD) analysis
Assay type: physicochemical
Settings: CD, 25 °C, benign buffer:TFE 1:1 vol/vol
API: value field is a number in degree·cm^2·dmol^−1; no unit string.

Ac-KWKSFAKTFKSAKKTVLHTALKAISS-NH2 [Peptide L6A]	−30626.20
Ac-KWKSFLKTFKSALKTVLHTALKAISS-NH2 [Peptide V13L]	−39315.30
Ac-KWKSFLKTFKSAEKTVLHTALKAISS-NH2 [Peptide V13E]	−18689.59

Query: [θ]222 50% TFE; subject: Ac-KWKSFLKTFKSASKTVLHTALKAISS-NH2 [Peptide V13S]
−30899.20

Moving on to the next substance: Ac-KWKSFAKTFKSAKKTVAHTALKAISS-NH2 [L6A/L17A]
−28421.80

Moving on to the next substance: Ac-KWKSFLKTFKSAAKTVLHTALKAISS-NH2 [Peptide V13A]
−34527.20

---

Test system: E. coli ATCC25922
Assay type: cell-based
Details: ATCC25922, 24 h
endpoint_label: G− MIC E. coli ATCC25922
The reply should consist of the numeric value with the unit placed after it.

Solved cases below.
Ac-KWKSFAKTFKSAKKTVLHTALKAISS-NH2 [Peptide L6A]	64 µM
Ac-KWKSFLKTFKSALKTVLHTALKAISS-NH2 [Peptide V13L]	4 µM

Query: G− MIC E. coli ATCC25922; subject: Ac-KWKSFLKTFKSAEKTVLHTALKAISS-NH2 [Peptide V13E]
64 µM

Moving on to the next substance: Ac-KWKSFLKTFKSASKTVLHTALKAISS-NH2 [Peptide V13S]
8 µM

Moving on to the next substance: Ac-KWKSFLKTFKSAAKTVLHTALKAISS-NH2 [Peptide V13A]
4 µM

---

Assay: Circular dichroism (CD) analysis
Format: physicochemical
Conditions: 50% TFE; relative to molar ellipticity of A12L/A20L in 50% TFE
endpoint_label: α-Helix (%) 50% TFE
The reply should consist of the numeric value with the unit placed after it.

Solved cases below.
Ac-KWKSFLKTFKSAEKTVLHTALKAISS-NH2 [Peptide V13E]	43.13%
Ac-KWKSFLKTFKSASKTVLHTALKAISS-NH2 [Peptide V13S]	71.30%
Ac-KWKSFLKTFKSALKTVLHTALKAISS-NH2 [Peptide V13L]	90.73%

Query: α-Helix (%) 50% TFE; subject: Ac-KWKSFLKTFKSAAKTVLHTALKAISS-NH2 [Peptide V13A]
79.68%

Moving on to the next substance: Ac-KWKSFAKTFKSAKKTVAHTALKAISS-NH2 [L6A/L17A]
65.58%

Moving on to the next substance: Ac-KWKSFAKTFKSAKKTVLHTALKAISS-NH2 [Peptide L6A]
70.67%
